Target: Muscarinic acetylcholine receptor M3 (Homo sapiens, UniProt P20309)
Sequence (P20309 whole entry): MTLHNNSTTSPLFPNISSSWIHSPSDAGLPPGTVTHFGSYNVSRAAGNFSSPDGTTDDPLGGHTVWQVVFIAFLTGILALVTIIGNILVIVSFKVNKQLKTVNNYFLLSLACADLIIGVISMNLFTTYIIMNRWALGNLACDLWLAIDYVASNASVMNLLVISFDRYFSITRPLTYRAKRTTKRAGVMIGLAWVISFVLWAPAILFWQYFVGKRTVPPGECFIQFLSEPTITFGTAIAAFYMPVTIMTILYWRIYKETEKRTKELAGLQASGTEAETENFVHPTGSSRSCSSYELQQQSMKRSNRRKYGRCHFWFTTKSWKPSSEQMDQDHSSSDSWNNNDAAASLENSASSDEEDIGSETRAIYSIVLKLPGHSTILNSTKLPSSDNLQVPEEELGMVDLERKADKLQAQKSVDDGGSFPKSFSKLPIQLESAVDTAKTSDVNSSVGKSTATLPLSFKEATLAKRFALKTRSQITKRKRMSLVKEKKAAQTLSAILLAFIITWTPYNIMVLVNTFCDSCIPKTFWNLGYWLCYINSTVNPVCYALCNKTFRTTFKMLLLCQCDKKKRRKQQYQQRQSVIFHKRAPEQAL
Assay: Displacement of [3H]-4-DAMP from human muscarinic M3 receptor expressed in BHK-21 cells
Assay type: cell-based
readout_kind: Ki (nM)
Numeric only. Scale: nM

Lookup result for O=C(Cc1ccccc1)NC1CCN(CCCN2C(=O)COc3ccccc32)CC1 ; measured Ki: 7000

Lookup result for CCCCCCOc1nsnc1C1=CCCN(C)C1 [XANOMELINE] ; measured Ki: 13

Lookup result for Clc1ccc2c(c1)N=C(N1CCNCC1)c1ccccc1N2 [N-DESMETHYLCLOZAPINE] ; measured Ki: 90

====

Biological target: Muscarinic acetylcholine receptor M4 (Homo sapiens)
Sequence (P08173 whole entry): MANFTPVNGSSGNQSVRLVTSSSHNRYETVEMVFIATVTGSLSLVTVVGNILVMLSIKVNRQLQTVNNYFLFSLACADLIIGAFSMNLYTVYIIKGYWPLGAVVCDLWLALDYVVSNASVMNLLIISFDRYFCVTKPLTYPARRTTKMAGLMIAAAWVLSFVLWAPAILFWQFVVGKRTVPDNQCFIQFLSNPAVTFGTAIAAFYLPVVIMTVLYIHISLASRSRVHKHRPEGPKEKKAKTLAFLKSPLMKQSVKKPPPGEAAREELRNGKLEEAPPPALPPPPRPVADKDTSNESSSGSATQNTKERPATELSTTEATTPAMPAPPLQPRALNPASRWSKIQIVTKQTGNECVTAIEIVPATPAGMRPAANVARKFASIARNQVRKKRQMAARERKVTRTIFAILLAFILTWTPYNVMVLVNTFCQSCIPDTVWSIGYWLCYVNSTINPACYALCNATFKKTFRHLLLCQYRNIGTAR
Experiment: Binding affinity to human muscarinic M4 receptor by radioligand displacement assay
pKi: −log10 of the molar value.
readout_kind: pKi

Lookup result for O=C(Cc1ccccc1)NC1CCN(CCCN2C(=O)COc3ccccc32)CC1 ; measured pKi: ≤ 6.00

====

Molecular target: UniProt P0DMS8
Sequence (P0DMS8 whole entry): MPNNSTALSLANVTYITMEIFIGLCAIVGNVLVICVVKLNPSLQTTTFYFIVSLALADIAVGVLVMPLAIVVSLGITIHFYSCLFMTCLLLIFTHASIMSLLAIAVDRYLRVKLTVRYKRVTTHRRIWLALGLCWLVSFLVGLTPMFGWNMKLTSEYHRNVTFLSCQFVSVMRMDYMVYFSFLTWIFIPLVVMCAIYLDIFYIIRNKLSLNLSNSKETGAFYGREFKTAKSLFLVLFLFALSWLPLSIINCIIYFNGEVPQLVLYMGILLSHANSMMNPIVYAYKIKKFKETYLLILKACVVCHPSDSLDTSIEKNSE
readout_kind: Ki

Lookup result for O=C(Cc1ccccc1)NC1CCN(CCCN2C(=O)COc3ccccc32)CC1 ; measured Ki: ≥ 1000 nM

====

pKi: −log10 of the molar value.
readout_kind: pKi

# O=C(Cc1ccccc1)NC1CCN(CCCN2C(=O)COc3ccccc32)CC1 with Substance-K receptor (Homo sapiens, UniProt P21452): pKi is ≤ 6.00

====

pKi: −log10 of the molar value.
readout_kind: pKi

# O=C(Cc1ccccc1)NC1CCN(CCCN2C(=O)COc3ccccc32)CC1 with Adenosine receptor A2a (Homo sapiens): pKi is ≤ 6.00

====

Test: Drug level in C57/6J mouse brain at 20 mg/kg, sc after 60 mins
Assay type: ADME, organism-based
Parameters: dose 20 mg/kg, route subcutaneous
Details: read-out: Activity
readout_kind: concentration at 1 h
Write the quantity with the unit trailing the number.

Lookup result for O=C(Cc1ccccc1)NC1CCN(CCCN2C(=O)COc3ccccc32)CC1 ; measured concentration at 1 h: 240 ng/g

====

Molecular target: D(1A) dopamine receptor (Homo sapiens, UniProt P21728)
Sequence (P21728 whole entry): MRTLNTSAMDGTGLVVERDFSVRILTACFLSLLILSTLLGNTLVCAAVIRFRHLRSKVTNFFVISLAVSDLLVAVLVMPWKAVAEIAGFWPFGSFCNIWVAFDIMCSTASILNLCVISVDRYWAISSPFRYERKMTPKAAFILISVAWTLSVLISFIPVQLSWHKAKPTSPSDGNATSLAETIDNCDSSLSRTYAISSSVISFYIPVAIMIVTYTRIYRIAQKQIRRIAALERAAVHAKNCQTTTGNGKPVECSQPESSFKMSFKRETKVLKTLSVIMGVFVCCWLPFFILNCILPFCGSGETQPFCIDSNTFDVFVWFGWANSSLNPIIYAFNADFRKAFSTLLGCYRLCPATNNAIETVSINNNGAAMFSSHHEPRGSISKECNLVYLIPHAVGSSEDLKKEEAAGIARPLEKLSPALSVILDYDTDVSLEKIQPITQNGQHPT
Test: Binding affinity to human dopamine D1 receptor by radioligand displacement assay
pKi: −log10 of the molar value.
readout_kind: pKi

Lookup result for O=C(Cc1ccccc1)NC1CCN(CCCN2C(=O)COc3ccccc32)CC1 ; measured pKi: ≤ 6.00

====

Sequence of the target: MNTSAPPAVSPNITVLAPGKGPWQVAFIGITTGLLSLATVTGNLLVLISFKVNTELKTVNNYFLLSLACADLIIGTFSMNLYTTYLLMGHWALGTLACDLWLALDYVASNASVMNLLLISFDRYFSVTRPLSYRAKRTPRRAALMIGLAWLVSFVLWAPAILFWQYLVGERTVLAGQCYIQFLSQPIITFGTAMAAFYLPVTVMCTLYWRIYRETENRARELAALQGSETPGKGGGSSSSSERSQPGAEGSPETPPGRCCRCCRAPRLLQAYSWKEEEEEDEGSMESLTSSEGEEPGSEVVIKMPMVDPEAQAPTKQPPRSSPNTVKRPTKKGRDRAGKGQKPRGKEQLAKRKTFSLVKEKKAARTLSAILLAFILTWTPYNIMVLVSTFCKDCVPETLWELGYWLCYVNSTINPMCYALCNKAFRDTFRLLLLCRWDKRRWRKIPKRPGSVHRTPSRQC
pEC50: −log10 of the molar value.
Answer Not satisfied if pEC50 is under 7, and Satisfied if it is 7 or more.

Exam item: Check if pEC50 >= 7 (inclusive). Item: CC(C)C(=O)NC1CCN(CCCN2C(=O)COc3ccccc32)CC1
Marked response: Satisfied

Exam item: Check if pEC50 >= 7 (inclusive). Item: CCC(=O)NC1CCN(CCCN2C(=O)COc3ccccc32)CC1
Marked response: Satisfied

Exam item: Check if pEC50 >= 7 (inclusive). Item: O=C(Cc1ccccc1)NC1CCN(CCCn2c(=O)oc3ccccc32)CC1
Marked response: Not satisfied

Exam item: Check if pEC50 >= 7 (inclusive). Item: O=C(Cc1ccccc1)NC1CCN(CCCN2C(=O)CCc3cccc(F)c32)CC1
Marked response: Not satisfied
